Assay: protein stability index of a GFP-peptide fusion (GPS, HEK-293T) (PSI 1-6); higher = more stable;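 further: 24-mer peptide tiles fused after GFP, lentivirally expressed, FACS-sorted into six equal bins by GFP/DsRed ratio, decoded by Illumina sequencing, PSI is the read-weighted mean bin number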
Conditions: treatment: MLN4924 1 uM, 8 h; c terminus: a fixed tail appended
Measured endpoint: protein stability index

| Sequence record | Assay result |
| --- | --- |
| STNRRRLSELLRYHTSQSGDEMTS [HSP90AB1] | 4.11 |
| RYFSAWAEDDHMLIQNEYRNGGSL [WEE1] | 2.32 |
| ALKHPWISHRSTVASCMHRQETVD [CAMK2A] | 3.35 |
| LDEIPDDEDLDLIPPKSVNPTCMC [FAM219A] | 5.16 |
| LAVGTDLYGQRNSAPEQELLVQDA [GFOD1] | 4.69 |
| LMSESEWRNLGVQQSQGWVHYMIH [CKS1B] | 2.05 |
| FDDCLYALCVVDTIKRSSQTGEWQ [GFOD1] | 2.29 |
| SNSLSSAEPLKEDKPVTGPRNKTE [ATF6] | 5.59 |
| ENNYYWSASECMQDFNTMFTNCYI [BRD3] | 2.49 |
| HNAWLSYSLLPQSTAPGLFLVSTH [PCDHGC5] | 2.63 |
| FGKKEKGRLIQLSRDGATGHVLLT [PPFIA4] | 2.78 |
| QTQTVAAQAQALAAQAAAAAHAAQ [PI4K2A] | 4.42 |
| PKPDRLLVLKVLWNDFLMCYSSRP [SLC19A2] | 3.08 |
| PIDPAAWVSHTAAMTGTFPAYGMS [DVL3] | 2.75 |
| TTLLRRYNIPHGPVVGSTRRLYEK [EMD] | 3.25 |
| PRIIKAAPSCAIMISTYEFGKSFF [SLC25A39] | 2.28 |
| GMFTFLSSVTAAVSGLLVGYELGI [SLC2A12] | 2.75 |
| WKYILLGLADVEANYVIVRAYQYT [SLC35F2] | 2.86 |
| QRCQKCSWSQYEMPEFSSDSTMRI [RTP4] | 2.42 |
| NLKNDGRQVEKRRNSGPVVEKLKQ [MMP1] | 4.41 |
| TFICYVASSASAFLTAPLLEFLLA [CMTM3] | 2.98 |
| AFHINKGLVKKYMNSLLIGELSPE [FADS1] | 2.32 |
| TCPSSSTASSISSSGGSSGSSSDN [DYRK1B] | 5.48 |
| FHCSMSPGNLEKNRYGDVPCLDQT [PTPN9] | 2.82 |
| ESFTVHFLPLNSAQTLHHKSCYNG [DNAAF3] | 2.49 |
| TFNFISSLKAICTEIANCSLKVKF [PLD5] | 3.29 |
| RKRKQSGHSPARAGKQRMKEKEQE [DDIT3] | 5.51 |
| AEQEPTRKLFEVESVTHHDYRMEL [SPAG8] | 4.33 |
| SRLQLLGATCMFVASKMKETIPLT [CCND1] | 2.69 |
| AAKQNHVTADDFVQTSVIGSNGYI [EHMT1] | 3.68 |
| LLSCGKILTGCKNMLFQQNKDGIG [ACSBG2] | 2.23 |
| YLSLLRMYLSPPSIHCLGPIKLEL [VPS39] | 2.94 |
| NTEERQKRQVTHFQFLSWPDYGVP [PTPN9] | 3.04 |
| AGRRMFPSYKVKVTGLNPKTKYIL [TBX5] | 2.2 |
| CMFCNEEFLGNRSVILNHMAREHA [ZNF277] | 3.52 |
| SDDEMELEETEPPLEPEDALSDAE [P3H4] | 5.59 |
| MDVERQETPEWLDSDSCQKCDQPF [WDFY2] | 5.08 |
| DVGENLTVPDEFTVEERQTGMWWR [SLC25A25] | 4.16 |
| AMFLGDAAAHWYGGAEMRTQHWPI [MYORG] | 2.17 |
| FMYFLRGSLPWQGLKADTLKERYQ [CSNK1G1] | 2.26 |
| TAQVQKDARIGEAEAKRDAGIREA [FLOT1] | 5.31 |
| ASVVLPARELQEALPEAPAPLLPH [BCL2L13] | 4.35 |
| GYGGGLGAGFGGGLGAGFGGGFAG [KRT16] | 2.47 |
| EDERVVGKEQGQNLARQWNNCAFL [RAP1B] | 4.09 |
| FFRSLLPNYTMEGERPEEGVAGGL [TCF25] | 3.52 |
| ISLDVLQPSFPEILLESHMVMIRG [POMT2] | 2.41 |
| SCDLPEERYRHEIAHDGQRIYVLG [KLHDC10] | 3.75 |
| QCPEPPIVVHCSAGIGRTGTFCSL [PTPN9] | 2.14 |
| SLKAPGARGPGPEGGGGGSYFSGQ [JUNB] | 4.67 |
| AEKSVAPSNTGSRTTSVRCRGIPR [NEK8] | 4.7 |
| CQGQRLFEKLLQLTSQNIEIKLVS [PLD5] | 2.29 |
| SNLHRHQRTHTGEKPYKCPECGEI [ZNF263] | 4.53 |
| YVGNLPPDIRTKDIEDVFYKYGAI [SRSF1] | 2.43 |

---

Test: protein stability index of a GFP-peptide fusion (GPS, HEK-293T) (PSI 1-6); higher = more stable
Conditions: treatment: DMSO; c terminus: a fixed tail appended
Class key for protein stability index values: Low (below 3), Mid (3 to below 4), High (4 or more)

| Sequence record | Discrete label |
| --- | --- |
| NERDSSEPGNFIPLFTPQSPVTAT [CDC25A] | High |
| EMQLSEVQIKTWFQNRRMKHKRQM [VENTX] | Mid |
| TRQLSLAVKDGLIVETLTVGCKGS [ZMYND11] | Mid |
| ALKHPWISHRSTVASCMHRQETVD [CAMK2A] | Mid |
| KEAVTGSRLGQGIGPIHLNEIQCT [LOXL2] | Mid |
| GSIPGFLISSGMSSHKQGHTSSEY [TAF7L] | Mid |
| LFVGVDCFLLTAMAYDQFLAICRP [OR3A1] | Mid |
| LVYLGDLSRYQNELAGVDTELLAE [SMG5] | Low |
| LLLYRIRKDVGCNRFEVTLEKSNK [VPS39] | Low |
| FRSPSMPCSVIRPILKRLERPQDR [CDC25B] | Mid |
| EPANLDILDTAGQAEFTAMRDQYM [RIT1] | High |
| DDTPEVLNRALSNLSSRWKNWWVR [CDS2] | Low |
| ISHEEQKSVRLARELESREAELRR [CHCHD6] | High |

---

Assay: protein stability index of a GFP-peptide fusion (GPS, HEK-293T) (PSI 1-6); higher = more stable
Conditions: treatment: MLN4924 1 uM, 8 h; c terminus: a fixed tail appended
Would you please tag the item met when its protein stability index is 4 or above, and not met when it is below?

| Sequence record | Discrete label |
| --- | --- |
| EPANLDILDTAGQAEFTAMRDQYM [RIT1] | met |
| ESFGQNYPEEADGTLDCISMALTC [RBBP5] | not met |
| LPPIPHVFSAGTGSAILPHFHHAF [PLAGL1] | not met |
| MRTGQNTWESKNILAVSFAPLVQP [PCMTD1] | not met |
| AYHDPMLKLSIMSEEELTHIFGDL [NET1] | not met |
| VIGALLRFNQAILVSRHDPASRRR [LPCAT4] | not met |
| ELVLPFQELQIDDNEYAYLKAIIF [HNF4A] | not met |
| YTVLGDTLIDGGEHYWEVRYEPDS [FSD1] | not met |
| RRQCRPEIRMWQTREKAKFSDGEK [PHTF1] | met |
| LRDWEDLQQDFQNIQETHRLYRLK [TMEM120A] | not met |
| YIIIVPLKKSRGKFIKPWESPDEM [PTPRD] | not met |
| HGASPGLRDGGGLTPLELLLRQLG [ANKRD9] | not met |
| FFYTAATNNPRFDKMEGNPICVQI [CRY1] | not met |
| ENEKDRADQTVLTEDEKKELENLA [CHGB] | met |
| PKKEANQAPKSKSGSRPRKPPPRK [LRRC59] | met |
| TPASNHLPGWEDIESKIPLNMEEP [SLC19A2] | met |
| KSSGKHYGQFTCEGCKSFFKRSVR [NR2F2] | not met |
| GPSRPAEKPPRPEAKSAQPADGWK [GCH1] | met |
| MQELTEMLGFRPYRFYFYMWKFVS [SLC6A17] | not met |
| SDTESTDLPSSTPVANSGTKPKTT [DLC1] | met |
| QLLADEKMKQLTEETEVLAHEIER [TRIM35] | met |
| ALHHVHTHLILHRDLKTQNILLDK [NEK8] | not met |
| VQWKEPEEPNGQIQGYRVYYTMDP [PTPRD] | not met |
| AAGKAEVVLGNIIKKKGWRRSSLV [KCNAB2] | not met |
| TCRPPSSSESSSDSDNSGGGGGGG [ANKRD17] | met |
| CEGRRTRFRSCNTEDCPTGSALTF [ADAMTS4] | not met |
| LRALGELLRRDLGVGTSMEGASPL [FANCE] | not met |
| RMNDLHYLNLDTWEWNELIPQGIC [KLHDC2] | not met |
| MQPPPPGPLGDCLRDWEDLQQDFQ [TMEM120A] | met |
| SLVLILSLSYTVLIVGRIAIGVSI [SLC2A12] | not met |
| KDPRDPEESKEPKEEKQRRRCKPK [GNAS] | met |
| WLDPGHTAVAQAPPAVASSSLFDL [SERTAD1] | not met |
| FFSVIFMTVGILSNSLAIAILMKA [PTGFR] | not met |
| ERVVREALEKLRSEMEEEKRQAVN [ZMYND11] | met |
| HTPQSSVKTSVPSSKSSGDLVDLF [CLINT1] | met |
| ELRNMCDEHIASEEPAEKEDLLQQ [CLCN6] | met |
| APCRSAQASVSCALEALEPFWEVL [HDAC6] | not met |
| TIVFLDKEVFASRISNPSDDNSCE [PCMTD2] | not met |
| SLQMSSAEMPHTETVSPLPSSMDL [NANOGP8] | met |
| QMLWELVLLGEPLVVMAPSPSESS [DENND6A] | not met |
| SLSAALLTAALLTFDTGCLTLSQY [POMT2] | not met |
| NQWETPPEDLQTDLAKLVDQQNPT [ZNF449] | met |
| DAQGSEMVTCKSEFYHDEFKRWIY [GAN] | not met |
| CQVEVRLLLAYNSSARIPKCPWME [INTS4] | not met |
| EDGVWYSVAPMNVRRGLAGATTLG [KLHL12] | not met |
| KEPATMSWLEENVHEVLQAVDAGD [TCF25] | met |
| FTFLQPLPLSPGVLSSTPDHSFSL [ATF4] | not met |
| PHIYGARIKGVEVFCPLDPPPPYE [FAM189A2] | not met |
| NYGGVIKNYFQHREFSFTLKDDIY [PRIM1] | not met |
| AAGGVPGGGSNNGKTPVCHQCHKV [PDLIM7] | not met |

FYI, the data here is from the supplement of paper PMC10567573.
